test_summary: chemical genetic growth profiling, strain panel (AID 1159580);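 also: tested at 20 µM; growth read once vehicle control cultures reached saturation at 30 °C; 1 = growth at the plate median or of vehicle wells; lower values mean less growth of the strain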
test_context: S. cerevisiae deletion strains, growth OD, locus YLR102C, strain apc9
The whole screen tested about 5,500 compounds, of which about 2,000 (36%) were called active. Not shown: some 18% with an inconclusive outcome. Rule as the data show it: active = normalized growth mostly below about 0.91 (no sharp cut-off); inconclusive = no clear call, values can overlap the other calls; inactive = mostly above about 0.92. This is one part of the list.
Parameter call: string, one of True = active, False = inactive

These recorded examples may help you get a feel for the data.
# molecule, group_label
records = [
    ("O=C(/C=C/c1ccccc1)c1ccc(O[C@@H]2O[C@H](CO)[C@@H](O)[C@H](O)[C@H]2O)cc1O", "True"),
    ("COc1ccccc1OCC(O)COC(N)=O (stereo not drawn)", "False"),
    ("CCC[C@@H]1C[C@@H](C(=O)N[C@H]([C@H]2O[C@H](SC)[C@H](O)[C@@H](O)[C@H]2O)[C@H](C)O)N(C)C1", "False"),
    ("CNC(C)(C)Cc1ccccc1", "False"),
    ("O=C1c2cccc(O)c2C(=O)c2c(O)cccc21", "False"),
]

Could you now consider this next molecule?
IN: Record lookup: outcome of this test for C[N+]12CCC(CC1)C(OC(=O)C(O)(c1ccccc1)c1ccccc1)C2 (stereo not drawn) ?
OUT: False

====

test_summary: chemical genetic growth profiling, strain panel (AID 1159580);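 also: tested at 20 µM; growth read once vehicle control cultures reached saturation at 30 °C; 1 = growth at the plate median or of vehicle wells; lower values mean less growth of the strain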
test_context: S. cerevisiae deletion strains, growth OD, locus YDL035C, strain GPR1, active compounds read low
Hit rate of the full screen: of about 5,500 compounds, about 2,000 (36%) were called active. Not shown: some 18% with an inconclusive outcome. Some of the results follow.
Reported normalized growth values are given for each entry in this list.
Keep it simple and answer with nothing but the number.

# molecule, normalized growth
measured = [
    ("CC(C)OC(=O)Nc1cccc(Cl)c1", 0.966),
    ("O=C1C=CC(=O)c2c(O)cccc21", 0.993),
    ("O=C(CCc1ccc(O)cc1)c1c(O)cc(O)cc1O", 1.01),
    ("O=c1c(O)cccc2cc(O)c(O)c(O)c12", 0.678),
    ("CC(C)c1cc2c(c(O)c1O)[C@@]1(C(=O)O)CCCC(C)(C)C1CC2 (some centres not stated)", 0.943),
    ("Cc1ccc(O)c(C(CCN(C(C)C)C(C)C)c2ccccc2)c1 (configuration not stated)", 1.01),
    ("O[C@H]1[C@H](O)[C@@H](O)C2OC[C@H]1O2", 0.986),
    ("CCCc1ncc(C[n+]2ccccc2C)c(N)n1", 1.01),
    ("CC(C)N=C(N)N=C(N)Nc1ccc(Cl)cc1", 1.01),
    ("CC(C)Cn1c(=O)n(C)c(=O)c2[nH]cnc21", 1.01),
]

IN: Which normalized growth is reported for this molecule? "COc1ccc(CC(=O)c2ccc(O)cc2O)cc1"
OUT: 0.94

IN: Next record, please: "C=C[C@H]1CN2CC[C@H]1C[C@H]2[C@H](O)c1ccnc2ccccc12"
OUT: 0.986

====

test_summary: chemical genetic growth profiling, strain panel (AID 1159580);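 also: tested at 20 µM; growth read once vehicle control cultures reached saturation at 30 °C; 1 = growth at the plate median or of vehicle wells; lower values mean less growth of the strain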
test_context: S. cerevisiae deletion strains, growth OD, locus YDL108W, strain KIN28, active compounds read low
About 2,000 (36%) of roughly 5,500 compounds were called active. Roughly 18% stayed inconclusive and do not appear here. The list shows a part of the results.
Reported normalized growth values are given for each entry in this list.
Keep it simple and answer with nothing but the number.

Consider the worked cases shown below.
# molecule, normalized growth
rows = [
    ("CCOC(=O)C(NC(=O)c1cccc(Cl)c1)(Nc1nc2ccccc2s1)C(F)(F)F (stereo not given)", 0.963),
    ("Cc1csc2ncnc(N3CCN(C(=O)Nc4ccc(SC(F)(F)F)cc4)CC3)c12", 0.995),
    ("CC(C)Sc1c(Cl)cccc1NC(=O)Nc1cccc(C(F)(F)F)c1", 0.972),
    ("COC(=O)c1sccc1S(=O)(=O)Nc1cc(C(F)(F)F)cc(C(F)(F)F)c1", 0.97),
    ("CC(C)(C)c1ccc(-c2cc(NC(=O)c3ccc(Cl)cc3)n[nH]2)cc1", 1.01),
    ("O=C(NCc1ccc2c(c1)OCO2)c1cc2ccccc2s1", 0.888),
    ("COc1ccc(OC)c2nc3c(nc12)C(=O)c1ccccc1-3", 0.972),
    ("O=C(Nc1ccccc1Sc1ccc(C(F)(F)F)cc1[N+](=O)[O-])C(Cl)Cl", 0.991),
]

Proceeding to the next molecule to report its normalized growth.
IN: Which normalized growth is reported for this molecule? "O=S(=O)(Nc1c(F)cccc1F)c1ccc(Cl)c(Cl)c1"
OUT: 0.947
